Target or system Mu-type opioid receptor (Homo sapiens); recorded quantity pKi.
pKi: −log10 of the molar value.
MEASURE NAME: pKi

CCCN1CC[C@]23c4c5ccc(O)c4O[C@H]2c2nc4ccccc4cc2C[C@@]3(O)[C@H]1C5; 6.91
Oc1ccc2c3c1O[C@H]1c4nc5ccccc5cc4C[C@@]4(O)[C@@H](C2)N(CC2CC2)CC[C@]314; 7.68
Oc1ccc2c3c1O[C@H]1c4nc5ccccc5cc4C[C@@]4(O)[C@@H](C2)N(CCF)CC[C@]314; 6.37

* * *

# SYSTEM NAME: Delta-type opioid receptor (Homo sapiens, UniProt P41143)
# Sequence (P41143 whole entry): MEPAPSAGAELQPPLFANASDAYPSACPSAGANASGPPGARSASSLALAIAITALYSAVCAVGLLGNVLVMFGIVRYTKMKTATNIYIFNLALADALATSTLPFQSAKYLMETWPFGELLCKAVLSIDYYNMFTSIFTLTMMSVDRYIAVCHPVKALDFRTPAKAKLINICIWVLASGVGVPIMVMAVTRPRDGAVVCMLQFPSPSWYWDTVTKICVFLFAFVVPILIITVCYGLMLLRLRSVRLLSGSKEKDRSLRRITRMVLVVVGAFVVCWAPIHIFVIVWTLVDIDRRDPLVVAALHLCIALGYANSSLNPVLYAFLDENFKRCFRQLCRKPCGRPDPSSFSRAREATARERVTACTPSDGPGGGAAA
# TEST DESCRIPTION: Displacement of [3H]DPDPE from human DOR expressed in CHO cells
pKi: −log10 of the molar value.
MEASURE NAME: pKi

CCN1CC[C@]23c4c5ccc(O)c4O[C@H]2c2[nH]c4ccccc4c2C[C@@]3(O)[C@H]1C5; 8.57
Oc1ccc2c3c1O[C@H]1c4[nH]c5ccccc5c4C[C@@]4(O)[C@@H](C2)N(CCF)CC[C@]314; 8.71
CCCN1CC[C@]23c4c5ccc(O)c4O[C@H]2c2nc4ccccc4cc2C[C@@]3(O)[C@H]1C5; 8.56
Oc1ccc2c3c1O[C@H]1c4[nH]c5ccccc5c4C[C@@]4(O)[C@@H](C2)N(CC(F)(F)F)CC[C@]314; 6.87
